Target: human CB1 (Homo sapiens)
Sequence (P21554 whole entry): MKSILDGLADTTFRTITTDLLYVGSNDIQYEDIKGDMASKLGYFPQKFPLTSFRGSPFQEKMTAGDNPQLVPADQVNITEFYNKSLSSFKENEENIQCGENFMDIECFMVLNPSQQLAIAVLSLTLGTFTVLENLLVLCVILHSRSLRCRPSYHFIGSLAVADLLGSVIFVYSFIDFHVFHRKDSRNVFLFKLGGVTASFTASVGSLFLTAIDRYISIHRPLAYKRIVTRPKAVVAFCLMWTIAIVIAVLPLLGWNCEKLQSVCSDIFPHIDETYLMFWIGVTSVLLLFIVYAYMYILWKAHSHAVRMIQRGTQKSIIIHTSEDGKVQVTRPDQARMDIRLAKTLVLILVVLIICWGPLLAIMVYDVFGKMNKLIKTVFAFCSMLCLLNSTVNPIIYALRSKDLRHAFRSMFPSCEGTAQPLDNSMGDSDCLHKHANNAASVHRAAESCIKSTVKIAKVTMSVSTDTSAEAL
Experiment: fluorescence-based membrane potential assay (GIRK activation) in AtT20 cells
Format: cell-based
Set-up: expressed in transfected cells; host or cells: mouse AtT20 FlpIn cells
Details: hCB1 pEC50 ±SEM, AtT20-hCB1; DNC = did not converge; ND = < 50% change in fluorescence at 10 μM
value_type: EC50

compound="COC(=O)[C@@H](NC(=O)c1cn(CCCCF)c2ccccc12)C(C)(C)C [Compound 7]" endpoint_result="3.39 nM"
compound="COC(=O)[C@H](Cc1ccccc1)NC(=O)c1cn(CCCCC#N)c2ncccc12 [Compound 24]" endpoint_result="186 nM"
compound="CC(C)(C)[C@H](NC(=O)c1nn(CCCCC#N)c2ccccc12)C(N)=O [Compound 12]" endpoint_result="0.331 nM"
compound="COC(=O)[C@@H](NC(=O)c1nn(CCCCF)c2ccccc12)C(C)(C)C [Compound 8]" endpoint_result="0.407 nM"

----------
Overview of reported Ki across a group of compounds:
Biological target: human CB2 (Homo sapiens)
Assay: competitive radioligand binding assay, displacement of [3H]CP55,940, HEK cell membranes
Parameters: expressed in transfected cells; host or cells: HEK293 cells, P2 membrane preparation
Conditions: hCB2 pKi ±SEM, [3H]CP55,940 1 nM, mean ± SEM of 3 to 6 independent experiments
value_type: Ki (nM)

compound="COC(=O)[C@H](Cc1ccccc1)NC(=O)c1cn(CCCCF)c2ncccc12 [Compound 40]" endpoint_result=28.8
compound="COC(=O)[C@@H](NC(=O)c1nn(CCCCF)c2ccccc12)C(C)C [Compound 36]" endpoint_result=1.55
compound="COC(=O)[C@@H](NC(=O)c1cn(CCCCC#N)c2ncccc12)C(C)(C)C [Compound 23]" endpoint_result=2.45
compound="COC(=O)[C@H](Cc1ccccc1)NC(=O)c1nn(CCCCF)c2ccccc12 [Compound 37]" endpoint_result=0.457
compound="N#CCCCCn1nc(C(=O)N[C@@H](Cc2ccccc2)C(N)=O)c2ccccc21 [Compound 13]" endpoint_result=166
compound="COC(=O)[C@@H](NC(=O)c1cn(CCCCF)c2ncccc12)C(C)C [Compound 38]" endpoint_result=60.3
compound="COC(=O)[C@H](Cc1ccccc1)NC(=O)c1cn(CCCCF)c2ccccc12 [Compound 35]" endpoint_result=6.03
compound="NC(=O)[C@H](Cc1ccccc1)NC(=O)c1cn(CCCCF)c2ccccc12 [Compound 27]" endpoint_result=174
compound="COC(=O)[C@@H](NC(=O)c1nn(CCCCF)c2ccccc12)C(C)(C)C [Compound 8]" endpoint_result=0.12
compound="CC(C)[C@H](NC(=O)c1cn(CCCCF)c2ncccc12)C(N)=O [Compound 31]" endpoint_result=1380

----------
Molecular target: human CB2 (Homo sapiens, UniProt P34972)
Sequence (P34972 whole entry): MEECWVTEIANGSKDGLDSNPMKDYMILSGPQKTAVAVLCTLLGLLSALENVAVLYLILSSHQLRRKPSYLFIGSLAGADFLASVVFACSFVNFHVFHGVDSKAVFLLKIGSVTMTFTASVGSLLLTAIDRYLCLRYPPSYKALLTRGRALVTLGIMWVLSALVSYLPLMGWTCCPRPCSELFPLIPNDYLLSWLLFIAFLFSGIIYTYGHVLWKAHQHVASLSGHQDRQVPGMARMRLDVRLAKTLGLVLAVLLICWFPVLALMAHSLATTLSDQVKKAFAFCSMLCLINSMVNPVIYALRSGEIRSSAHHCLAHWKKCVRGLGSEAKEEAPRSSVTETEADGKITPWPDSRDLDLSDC
Assay: fluorescence-based membrane potential assay (GIRK activation) in AtT20 cells
Assay type: cell-based
Set-up: expressed in transfected cells; host or cells: mouse AtT20 FlpIn cells
Settings: hCB2 EC50, AtT20-hCB2; value in brackets after pEC50
I'd appreciate it if you could label each record using EC50 and these ranges: Low (below 8 nM), Medium (8 nM to below 100 nM), High (100 nM or more)

sample_smiles=COC(=O)[C@H](Cc1ccccc1)NC(=O)c1nn(CCCCF)c2ccccc12 cat=Low
sample_smiles=COC(=O)[C@H](Cc1ccccc1)NC(=O)c1cn(CCCCF)c2ccccc12 cat=Medium
sample_smiles=CC(C)[C@H](NC(=O)c1cn(CCCCF)c2ncccc12)C(N)=O cat=High
sample_smiles=COC(=O)[C@H](Cc1ccccc1)NC(=O)c1cn(CCCCC#N)c2ncccc12 cat=Medium
sample_smiles=COC(=O)[C@@H](NC(=O)c1nn(CCCCF)c2ccccc12)C(C)(C)C cat=Low
sample_smiles=COC(=O)[C@@H](NC(=O)c1cn(CCCCF)c2ccccc12)C(C)C cat=Medium
sample_smiles=NC(=O)[C@H](Cc1ccccc1)NC(=O)c1nn(CCCCF)c2ccccc12 cat=Medium
sample_smiles=NC(=O)[C@H](Cc1ccccc1)NC(=O)c1cn(CCCCF)c2ccccc12 cat=High
